Molecular target: human ether-à-go-go-related gene (hERG) potassium channel (human, UniProt Q12809)
Sequence (Q12809 whole entry, looked up): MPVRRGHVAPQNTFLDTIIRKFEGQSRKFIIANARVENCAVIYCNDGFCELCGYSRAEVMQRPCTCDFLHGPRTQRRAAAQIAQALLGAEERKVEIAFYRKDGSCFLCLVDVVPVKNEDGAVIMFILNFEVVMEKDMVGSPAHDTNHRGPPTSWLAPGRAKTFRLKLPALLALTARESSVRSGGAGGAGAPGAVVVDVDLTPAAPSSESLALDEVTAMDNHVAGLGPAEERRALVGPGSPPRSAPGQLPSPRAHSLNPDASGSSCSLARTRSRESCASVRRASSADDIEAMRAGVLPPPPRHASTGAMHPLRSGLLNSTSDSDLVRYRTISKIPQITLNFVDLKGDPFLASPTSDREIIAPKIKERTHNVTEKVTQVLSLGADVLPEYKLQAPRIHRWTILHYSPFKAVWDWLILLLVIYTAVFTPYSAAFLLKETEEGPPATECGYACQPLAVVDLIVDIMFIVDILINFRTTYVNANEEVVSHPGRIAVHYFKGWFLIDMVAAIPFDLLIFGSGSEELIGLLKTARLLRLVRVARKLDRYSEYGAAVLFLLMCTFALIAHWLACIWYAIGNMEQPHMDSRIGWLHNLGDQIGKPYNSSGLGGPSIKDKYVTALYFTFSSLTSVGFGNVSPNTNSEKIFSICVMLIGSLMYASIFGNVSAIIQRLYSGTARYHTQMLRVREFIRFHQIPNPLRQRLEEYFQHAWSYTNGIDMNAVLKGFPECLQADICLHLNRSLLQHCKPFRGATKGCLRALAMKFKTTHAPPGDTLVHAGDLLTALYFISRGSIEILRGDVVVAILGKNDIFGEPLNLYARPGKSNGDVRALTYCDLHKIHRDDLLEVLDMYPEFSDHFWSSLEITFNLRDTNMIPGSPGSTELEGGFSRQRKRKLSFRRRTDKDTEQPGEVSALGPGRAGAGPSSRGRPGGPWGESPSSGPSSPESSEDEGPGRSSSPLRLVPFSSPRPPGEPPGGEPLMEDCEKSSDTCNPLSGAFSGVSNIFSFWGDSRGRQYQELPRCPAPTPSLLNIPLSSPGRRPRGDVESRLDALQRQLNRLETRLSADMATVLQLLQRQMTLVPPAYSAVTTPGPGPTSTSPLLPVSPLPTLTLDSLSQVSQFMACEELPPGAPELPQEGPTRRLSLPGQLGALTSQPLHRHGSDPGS
Experiment: primary screen, population patch clamp on CHO cells stably expressing hERG; higher = less effect of the substance
About 2,200 (0.71%) of roughly 310,000 compounds showed an effect of 50% or more. The effect is printed as a negative number. This is one part of a sample in which strong results are shown more often than they occur.
Observable: hERG current change (%, negative = inhibition) at 1uM (%)
Answers are plain numbers, in %.

Look at each compound and report its hERG current change (%, negative = inhibition) at 1uM.
1. CCOc1ccc(N(C(=O)c2cnsn2)C(C(=O)NC2CCCCC2)c2ccncc2)cc1 (centres unmarked)
2. CCOc1ccc(N(C(=O)c2cnccn2)C(C(=O)NC2CCCCC2)c2ccc(O)cc2)cc1 (centres unmarked)
3. C=CCSc1nnc(Cn2c(=O)sc3ccccc32)n1C
4. CN1CCN(c2ccc(S(=O)(=O)N3CCCCC3)cc2NC(=O)Cc2c(F)cccc2Cl)CC1
5. CCCCn1c(N)c(N(CC(C)C)C(=O)c2cccc(S(=O)(=O)N3CCCCCC3)c2)c(=O)[nH]c1=O

Output:
1. -52.1
2. 12.4
3. -6.54
4. -7.39
5. 4.52

###

Biological target: human ether-à-go-go-related gene (hERG) potassium channel (human)
Assay: primary screen, population patch clamp on CHO cells stably expressing hERG; higher = less effect of the substance
Hit rate of the full screen: of about 310,000 compounds, about 2,200 (0.71%) showed an effect of 50% or more. The effect is printed as a negative number. Shown is part of a subset that was picked to be rich in strong results.
Observable: hERG current change (%, negative = inhibition) at 1uM (%)
One number for each entry, in %.

Below are worked cases with known answers.
Cc1ccc(NC(=O)COC(=O)Cn2cnc3c2c(=O)n(C)c(=O)n3C)c(Cl)c1 : 13.3
COc1ccccc1N1CCN(S(=O)(=O)c2cc(Br)cnc2N)CC1 : 15.3
CC1CN(c2nn3c(=O)c4ccccc4nc3c3ccccc23)CC(C)O1 (centres unmarked) : -0.465
c1ccc2c(N3CCCC3)nc(-c3ccncc3)nc2c1 : 1.09
CN1CCN(c2nc(-c3ccncc3)nc3ccccc23)CC1 : -64.9

Look at each compound and report its hERG current change (%, negative = inhibition) at 1uM.
1. O=C(C1=NN[C@@H]2C(=O)N(c3cccc(F)c3)C(=O)[C@H]12)c1ccc2ccccc2n1
2. Cc1ccc(NC(=S)N2CCN(c3ccccn3)CC2)c(C)c1
3. COc1ccc(C(=O)N2CCN(C(C)=O)CC2)cc1S(=O)(=O)N1CCOCC1
4. O=C(Nc1cc(SCC(O)CO)cc([N+](=O)[O-])c1)c1ccc(-n2cnnn2)cc1 (centres unmarked)
5. CCN1CCN(c2nn3c(=O)c4ccccc4nc3c3ccccc23)CC1

Output:
[6.85, 12.7, 14.4, 17.4, -71.5]

Look at each compound and report its hERG current change (%, negative = inhibition) at 1uM.
1. CCN1CCN(c2nc(-c3cccnc3)nc3ccccc23)CC1.Cl
2. CCN1CCN(c2nc(-c3ccccn3)nc3ccccc23)CC1
3. CN1CCN(c2nc(-c3ccc(Cl)cc3Cl)nc3ccccc23)CC1
4. CCN1CCN(c2nc(-c3ccncc3)nc3ccccc23)CC1
5. COc1cc(OC)cc(C(=O)Nc2cccc3cccnc23)c1
6. CCN(C(=O)/C=C/c1ccc(OC)cc1)C1CCS(=O)(=O)C1 (centres unmarked)

Output:
-18.4
-17.5
-58.1
-75.6
19.3
-3.05

Look at each compound and report its hERG current change (%, negative = inhibition) at 1uM.
1. CN1CCN(c2nc(-c3ccc(Cl)c(Cl)c3)nc3ccccc23)CC1
2. CN1CCN(c2nc(-c3ccccc3Cl)nc3ccccc23)CC1
3. Cc1ccc(-c2nc(N3CCN(C)CC3)c3ccccc3n2)cc1.Cl
4. CN(c1ccc(O)cc1)c1nc(O)c(C2=c3ccccc3=NC2=O)s1

Output:
9.87
-19.8
3.62
8.57

###

Molecular target: human ether-à-go-go-related gene (hERG) potassium channel (human, UniProt Q12809)
Assay: primary screen, population patch clamp on CHO cells stably expressing hERG; higher = less effect of the substance
Screen size: about 310,000 compounds; about 2,200 (0.71%) showed an effect of 50% or more. Effects have a minus sign here. Shown is part of a subset that was picked to be rich in strong results.
Observable: hERG current change (%, negative = inhibition) at 1uM (%)
Answers are plain numbers, in %.

CCCCNc1nc2ccccc2n1CC(=O)N1CCc2ccccc2C1 : -6.59
CC(C)CCNC(=O)Cc1csc(-c2ccccc2)n1 : 6.54
CCCCS(=O)(=O)N1CCC(C(=O)Oc2ccc(Cl)cc2)CC1 : 17.9
CC(C)[C@H](NS(=O)(=O)c1ccccc1)C(=O)OCn1nnc2ccccc2c1=O : 4.31
Cc1nnc(SCc2ccc(C(=O)c3ccc(Cl)cc3)o2)n1-c1ccccc1 : -14.1

Look at each compound and report its hERG current change (%, negative = inhibition) at 1uM.
1. O=C(NCCN1CCCCC1)c1cc(OCC(F)(F)F)ccc1OCC(F)(F)F
2. CC(C)(C)c1ccc(/C=N/OCC(=O)NCc2ccc(F)cc2)cc1
3. CC(=O)Nc1ccc(NC(=O)C(C)OC(=O)CNC(=O)c2cccs2)cc1 (centres unmarked)
4. CCOC(=O)N(NC(=O)C(O)(CC(C)C)CC(C)C)c1ccccc1
5. O=S(=O)(c1ccc(Cl)cc1)N1CCC2(CC1)OCCO2

Output:
1. -17.2
2. 11.5
3. 12.5
4. 6.37
5. 2.73

Look at each compound and report its hERG current change (%, negative = inhibition) at 1uM.
1. Cc1cc(Nc2cccc([N+](=O)[O-])c2)c2cccc(C)c2n1.Cl
2. Nc1nc(CN2CCN(c3ccccn3)CC2)nc(Nc2ccc(Cl)cc2)n1
3. O=c1[nH]c(Cn2nnc(-c3ccccc3)n2)nc2scc(-c3ccccc3)c12
4. Cc1cc(C)c2nc(C(F)(F)F)nc(NCCCN3CCOCC3)c2c1
5. CN(CC(=O)Nc1ccccc1C(F)(F)F)C(=O)COc1ncnc2sccc12
6. CCOC(=O)c1nc2cc3n(c(CC(C)C)c-2c1C)CC(C)=C3C.Cl
7. COC(=O)COc1cc(C)cc2oc(=O)c3c(c12)CCCC3

Output:
1: -73.5; 2: -56.2; 3: 13.1; 4: 9.96; 5: 6.31; 6: -54.2; 7: -4.18

Look at each compound and report its hERG current change (%, negative = inhibition) at 1uM.
1. Br.CC(C)(C)c1ccc(CN2C3=NCCCN3c3ccccc32)cc1
2. COc1ccccc1N1CCN(Cc2nc(N)nc(Nc3ccccc3)n2)CC1
3. CCCc1c(C(=O)N/N=C/c2cccnc2)nnn1-c1nonc1N
4. Cc1ccc(C(=O)N2NC(c3ccc(F)cc3)C3C(=O)N(c4ccc(C)c(C)c4)C(=O)C32)cc1 (centres unmarked)

Output:
1. -79.7
2. -33.8
3. 16.6
4. 10.6

###

Target: human ether-à-go-go-related gene (hERG) potassium channel (human, UniProt Q12809)
Test: primary screen, population patch clamp on CHO cells stably expressing hERG; higher = less effect of the substance
Screen size: about 310,000 compounds; about 2,200 (0.71%) showed an effect of 50% or more. The effect is printed as a negative number. Shown is part of a subset that was picked to be rich in strong results.
Assign hERG current change (%, negative = inhibition) at 1uM to each entry below.
Answers are plain numbers, in %.

Look at each molecule and report its hERG current change (%, negative = inhibition) at 1uM.
1. CCN1CCCC1CNC(=O)c1cc2ccc(OC)cc2[nH]1 (stereo not shown)
2. Cn1c(=O)[nH]c(=O)c2c1nc(N1CCCCCC1)n2CCSc1nc2ccccc2o1
3. Cc1cc(NC(=O)c2cc3cccc([N+](=O)[O-])c3[nH]2)ccc1F

Output:
1. 5.34
2. 7.86
3. 11.5

Look at each molecule and report its hERG current change (%, negative = inhibition) at 1uM.
1. CCN1CCCC1CNc1ncnc2c1[nH]c1ccc(Cl)cc12 (stereo not shown)
2. Fc1ccc2[nH]c3c(NCc4ccccc4)ncnc3c2c1
3. CC(C)(C)c1ccc(CSc2cnn(C(C)(C)C)c(=O)c2Cl)cc1

Output:
1: -85.5; 2: 15.4; 3: 15.7

Look at each molecule and report its hERG current change (%, negative = inhibition) at 1uM.
1. CCCNS(=O)(=O)c1cc(Br)cc2c1N(C(=O)CC)CC2
2. COC(=O)Cc1ccc(NC(=S)N2CCN(C(=O)C3CCCO3)CC2)cc1 (stereo not shown)
3. CC/C(=N/Nc1ccccc1)c1cnnc(-c2ccccc2)n1
4. CCN(CC)CCN(C(=O)C1=COCCO1)c1nc2c(OC)ccc(OC)c2s1.Cl

Output:
[4.42, 5.7, 0.406, -84.9]

###

Target: human ether-à-go-go-related gene (hERG) potassium channel (human)
Assay: primary screen, population patch clamp on CHO cells stably expressing hERG; higher = less effect of the substance
The campaign covered roughly 310,000 compounds. About 2,200 (0.71%) showed an effect of 50% or more. Effects have a minus sign here. The full list was thinned out, with strong results kept by preference.
Assign hERG current change (%, negative = inhibition) at 1uM to each entry below.
Numbers only, in %.

COC(=O)c1ccccc1Nc1ccnc(Cl)n1 : -6.9
Cc1cc(C(=O)NC2CCCCC2)on1 : 10.2
CC(C)(C)c1ccc(C(=O)O/N=C(\N)c2ccccn2)cc1 : 13.9
CC(C)Sc1nc2c(c(=O)[nH]c(=O)n2C)n1Cc1ccc(Cl)cc1 : 4.3
COC(=O)c1ccc(NC(=O)CCN2CCN(CCC(=O)Nc3ccc(C(=O)OC)cc3)CC2)cc1 : 1.76

Look at each compound and report its hERG current change (%, negative = inhibition) at 1uM.
1. Cc1ccc(NC(=O)CCN2CCOCC2)cc1C
2. Cc1ccc(Nc2nc(N)c([N+](=O)[O-])c(NCc3ccccc3)n2)cc1
3. Cc1ccc(NC(=O)CCN2CCN(C/C=C/c3ccccc3)CC2)cc1.Cl
4. O=C(N/N=C/c1cc2c(cc1[N+](=O)[O-])OCO2)c1ccccn1
5. CN(C)CCCN(C(=O)c1ccco1)c1nc(-c2ccc(Cl)cc2)cs1.Cl

Output:
11.1
8.5
-86.3
10.1
-70.8

Look at each compound and report its hERG current change (%, negative = inhibition) at 1uM.
1. CCOC(=O)C(C)Sc1nc2c(c(=O)[nH]c(=O)n2C)n1CCc1ccccc1 (centres unmarked)
2. COC(=O)C(C)Sc1nc2c(c(=O)[nH]c(=O)n2C)n1CCCc1ccccc1 (centres unmarked)
3. CC(C)c1ccc2c(c1)[C@H]1OCC[C@H]1[C@@H](c1cccs1)N2

Output:
1: -5.6; 2: -70.1; 3: 4.11

Look at each compound and report its hERG current change (%, negative = inhibition) at 1uM.
1. O=C(OCC(=O)N1CCOCC1)c1ccccc1O
2. Cc1ccc(NC(=O)CCN2CCN(C)CC2)cc1.Cl
3. CCCCCn1c(SC(C)C(C)=O)nc2c1c(=O)[nH]c(=O)n2C (centres unmarked)
4. O=C1N=C(N2CCOCC2)S/C1=C/c1ccc(-c2ccc(F)cc2)o1
5. C/C(Cl)=C/Cn1c(SC(C)C)nc2c1c(=O)[nH]c(=O)n2C
6. COc1ccccc1Nc1nc(N)nc(CN2CCc3ccccc3C2)n1
7. COC(=O)c1ccc(NC(=O)CCN2CCCCC2)cc1.Cl

Output:
1: 13.6; 2: 14.9; 3: -91.2; 4: 9.65; 5: 6.96; 6: -2.7; 7: -51

Look at each compound and report its hERG current change (%, negative = inhibition) at 1uM.
1. Cc1ccc(-c2ccc(/C=C3\SC(N4CCOCC4)=NC3=O)o2)cc1
2. COc1ccc(-n2c(CNC(=O)COc3ccc(Cl)cc3)n[nH]c2=S)cc1
3. CCN(CC)CCCN(C(=O)c1ccco1)c1nc(-c2ccc(Cl)cc2)cs1.Cl
4. CCOC(=O)C1CCCN(Cc2nc(N)nc(Nc3ccccc3OC)n2)C1 (centres unmarked)
5. COc1ccc(-c2cc(C(F)(F)F)n3nc(C(=O)N4CCCCC4)cc3n2)cc1
6. CN(Cc1ccccc1)S(=O)(=O)c1cc2c3c(c1)CCN3C(=O)CC2

Output:
[-54.6, 16.9, -25.5, -53.2, 4.13, 6.98]
